assayedSystem: Recombinant human NK3 (hNK3) receptor (Homo sapiens, UniProt P29371)
Construct: expressed in transfected cells
Sequence (P29371 whole entry): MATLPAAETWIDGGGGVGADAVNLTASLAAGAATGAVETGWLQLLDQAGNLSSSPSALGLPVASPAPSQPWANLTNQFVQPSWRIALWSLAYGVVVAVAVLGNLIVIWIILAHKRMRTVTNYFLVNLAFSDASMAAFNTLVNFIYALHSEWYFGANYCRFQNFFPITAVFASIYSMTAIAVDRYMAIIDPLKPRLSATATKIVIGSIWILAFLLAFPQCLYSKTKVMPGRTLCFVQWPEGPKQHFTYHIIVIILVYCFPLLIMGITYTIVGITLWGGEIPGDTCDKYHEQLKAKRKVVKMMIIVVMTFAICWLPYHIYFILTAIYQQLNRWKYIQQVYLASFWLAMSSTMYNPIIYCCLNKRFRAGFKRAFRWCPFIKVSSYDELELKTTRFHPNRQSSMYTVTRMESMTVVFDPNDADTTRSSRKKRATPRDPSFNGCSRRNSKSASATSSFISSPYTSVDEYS
assayRemarks: NK3 receptor binding, [3H]SR142801 displacement, membrane preparations
protocolConditions: second value of the cell pKi NK1/NK3; hNK3 receptor, [3H]SR142801
pKi: −log10 of the molar value.
Reported pKi by item:
property: pKi

- compound: "CCN([C@H]1CCN(c2cc(-c3ccc(F)cc3C)c(N(C)C(=O)C(C)(C)c3cc(C(F)(F)F)cc(C(F)(F)F)c3)cn2)C1)S(C)(=O)=O"
  property: "pKi"
  measurement: 8.33
- compound: "Cc1ccccc1-c1cc(N2CCC[C@H]2CO)ncc1N(C)C(=O)C(C)(C)c1cc(F)cc(F)c1"
  property: "pKi"
  measurement: 8.35
- compound: "CN(C(=O)C(C)(C)c1cc(C(F)(F)F)cc(C(F)(F)F)c1)c1cnc(NC(CO)CO)cc1-c1ccccc1Cl"
  property: "pKi"
  measurement: 8.25
- compound: "COc1cc(Cl)cc(C(C)(C)C(=O)N(C)c2cnc(N3CCC[C@H]3CO)cc2-c2ccccc2Cl)c1"
  property: "pKi"
  measurement: 8.75
- compound: "CCCN(CCO)c1cc(-c2ccccc2Cl)c(N(C)C(=O)C(C)(C)c2cc(C(F)(F)F)cc(C(F)(F)F)c2)cn1"
  property: "pKi"
  measurement: 8.28
- compound: "Cc1cc(F)ccc1-c1cc(N2CCC[C@H]2CN2CCCC2)ncc1N(C)C(=O)C(C)(C)c1cc(C(F)(F)F)cc(C(F)(F)F)c1"
  property: "pKi"
  measurement: 7.67
- compound: "CC(C)C[C@@H](CO)Nc1cc(-c2ccccc2Cl)c(N(C)C(=O)C(C)(C)c2cc(C(F)(F)F)cc(C(F)(F)F)c2)cn1"
  property: "pKi"
  measurement: 8.31
- compound: "Cc1ccccc1-c1cc(N2CCC(CO)CC2)ncc1N(C)C(=O)C(C)(C)c1cc(C(F)(F)F)cc(C(F)(F)F)c1"
  property: "pKi"
  measurement: 7.89
- compound: "Cc1ccccc1-c1cc(N2CCOC(CO)C2)ncc1N(C)C(=O)C(C)(C)c1cc(C(F)(F)F)cc(C(F)(F)F)c1 (racemic)"
  property: "pKi"
  measurement: 7.58
- compound: "CN(C(=O)C(C)(C)c1cc(C(F)(F)F)cc(C(F)(F)F)c1)c1cnc(N2CCCC(O)C2)cc1-c1ccccc1Cl (racemic)"
  property: "pKi"
  measurement: 7.84
- compound: "CC(=O)N[C@H]1CCN(c2cc(-c3ccccc3Cl)c(N(C)C(=O)C(C)(C)c3cc(C(F)(F)F)cc(C(F)(F)F)c3)cn2)C1"
  property: "pKi"
  measurement: 7.45
- compound: "Cc1cc(C)cc(C(C)(C)C(=O)N(C)c2cnc(N3CCC[C@H]3CO)cc2-c2ccccc2C)c1"
  property: "pKi"
  measurement: 8.29
- compound: "CN(C(=O)C(C)(C)c1cc(C(F)(F)F)cc(C(F)(F)F)c1)c1cnc(N(CCO)CCO)cc1-c1ccc(Cl)cc1Cl"
  property: "pKi"
  measurement: 8.45

====

assayedSystem: UniProt P25103
Sequence (P25103 whole entry): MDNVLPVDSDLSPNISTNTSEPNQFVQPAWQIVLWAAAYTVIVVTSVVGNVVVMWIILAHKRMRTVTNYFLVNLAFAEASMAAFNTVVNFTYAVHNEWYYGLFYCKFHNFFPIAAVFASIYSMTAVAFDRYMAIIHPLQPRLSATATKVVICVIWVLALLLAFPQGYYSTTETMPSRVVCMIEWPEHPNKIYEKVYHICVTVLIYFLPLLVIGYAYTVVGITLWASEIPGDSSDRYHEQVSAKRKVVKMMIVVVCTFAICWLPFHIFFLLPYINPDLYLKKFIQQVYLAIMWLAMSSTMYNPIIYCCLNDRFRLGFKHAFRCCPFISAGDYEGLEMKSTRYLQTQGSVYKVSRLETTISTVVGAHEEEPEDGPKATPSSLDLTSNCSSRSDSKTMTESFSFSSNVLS
assayRemarks: NK1 receptor binding, [3H]substance P displacement, CHO cell membranes
protocolConditions: first value of the cell pKi NK1/NK3; human NK1 receptor, [3H]substance P
Ki by entry:

- compound: "CC(=O)N[C@H]1CCN(c2cc(-c3ccccc3Cl)c(N(C)C(=O)C(C)(C)c3cc(C(F)(F)F)cc(C(F)(F)F)c3)cn2)C1"
  unitsOfMeasure: "nM"
  Ki: 2.4
- compound: "Cc1cc(F)ccc1-c1cc(N[C@H]2CC[C@H](O)CC2)ncc1N(C)C(=O)C(C)(C)c1cc(C(F)(F)F)cc(C(F)(F)F)c1"
  unitsOfMeasure: "nM"
  Ki: 1.02
- compound: "CN(C(=O)C(C)(C)c1cc(C(F)(F)F)cc(C(F)(F)F)c1)c1cnc(N2CCC(O)CC2)cc1-c1ccccc1Cl"
  unitsOfMeasure: "nM"
  Ki: 0.646
- compound: "CCCCCN(CCO)c1cc(-c2ccccc2Cl)c(N(C)C(=O)C(C)(C)c2cc(C(F)(F)F)cc(C(F)(F)F)c2)cn1"
  unitsOfMeasure: "nM"
  Ki: 1.29
- compound: "Cc1cc(F)ccc1-c1cc(N2C[C@H](O)C[C@H]2CO)ncc1N(C)C(=O)C(C)(C)c1cccc(C(F)(F)F)c1"
  unitsOfMeasure: "nM"
  Ki: 1.51
- compound: "CN(C(=O)C(C)(C)c1cc(C(F)(F)F)cc(C(F)(F)F)c1)c1cnc(NC[C@H](O)CO)cc1-c1ccccc1Cl"
  unitsOfMeasure: "nM"
  Ki: 2.82
- compound: "Cc1cc(F)ccc1-c1cc(N2CCOC[C@H]2CO)ncc1N(C)C(=O)C(C)(C)c1cc(C(F)(F)F)cc(C(F)(F)F)c1"
  unitsOfMeasure: "nM"
  Ki: 1.66
- compound: "CN(C(=O)C(C)(C)c1cc(C(F)(F)F)cc(C(F)(F)F)c1)c1cnc(N2CC[C@@H](O)[C@H](O)C2)cc1-c1ccccc1Cl (racemic)"
  unitsOfMeasure: "nM"
  Ki: 1.32
- compound: "COc1cc(Cl)cc(C(C)(C)C(=O)N(C)c2cnc(N3CCC[C@H]3CO)cc2-c2ccccc2Cl)c1"
  unitsOfMeasure: "nM"
  Ki: 4.79
- compound: "Cc1cc(F)ccc1-c1cc(N2CCC(O)C2)ncc1N(C)C(=O)C(C)(C)c1cc(C(F)(F)F)cc(C(F)(F)F)c1 (racemic)"
  unitsOfMeasure: "nM"
  Ki: 2.63
- compound: "CN(C(=O)C(C)(C)c1cc(C(F)(F)F)cc(C(F)(F)F)c1)c1cnc(N2CCC(NS(C)(=O)=O)CC2)cc1-c1ccccc1Cl"
  unitsOfMeasure: "nM"
  Ki: 5.75
- compound: "C[C@H](O)CNc1cc(-c2ccccc2Cl)c(N(C)C(=O)C(C)(C)c2cc(C(F)(F)F)cc(C(F)(F)F)c2)cn1"
  unitsOfMeasure: "nM"
  Ki: 0.724
- compound: "CN(C(=O)C(C)(C)c1cc(C(F)(F)F)cc(C(F)(F)F)c1)c1cnc(N2CCC[C@@H]2CO)cc1-c1ccc(Cl)cc1Cl"
  unitsOfMeasure: "nM"
  Ki: 4.27

Measured values drawn from patent US8404708B2 for this set.
